These measurements were taken from patent US10786508B2.

# test.method.notes: Compound solubility in water
# Assay type: physicochemical
The entries below are paired with their reported solubility.
// units = µg/mL; emit number, no label

Example entries and their recorded answers appear below.
>>> endpoint_result("CCCCCOC1CCC(NC(=O)c2ncn3c(C(C)C)cc(C)nc23)CC1 (centres unmarked)")
30.9
>>> endpoint_result("Cc1cc(C)n2cnc(C(=O)Nc3ccc(-c4ncco4)cc3)c2n1")
7.9
>>> endpoint_result("COCc1cc(C2CC2)nc2c(C(=O)NC(C)(C)c3cccc(OC4CC4)c3)ncn12")
14.4
>>> endpoint_result("Cc1cc(C)n2cnc(C(=O)Nc3ccc(-c4cccs4)nc3)c2n1")
0.4

Qu. What solubility value was documented for this compound, CCOc1ccc(C(C)NC(=O)c2ncn3c(C)cc(C)nc23)cc1 (centres unmarked) ?
Ans. 25.9

Qu. Name the reported solubility value associated with the compound Cc1cc(C)n2cnc(C(=O)Nc3ccc(Cl)c(-c4cnco4)c3)c2n1
Ans. 0.2

Qu. So what's the measured solubility for this one? Cc1cc(C)n2cnc(C(=O)Nc3cccc4c3CCC4)c2n1
Ans. 0.9

Qu. // lookup solubility for CCOCc1cccc(C(C)(C)NC(=O)c2ncn3c(COC)cc(C(C)C)nc23)c1
Ans. 20.6

Qu. I am curious: what solubility value has been reported for CCCCO[C@H]1[C@@H]2CC[C@H]1C[C@@H](NC(=O)c1ncn3c(C)cc(C)nc13)C2 ?
Ans. 13.1

Qu. I am curious: what solubility value has been reported for Cc1cc(C)n2cnc(C(=O)NC3CCc4ccccc4C3)c2n1 (centres unmarked) ?
Ans. 16.6

Qu. Name the recorded solubility for Cc1cc(C)n2cnc(C(=O)Nc3ccc4c(C)cc(=O)oc4c3)c2n1 .
Ans. 0.3

Qu. Value lookup for solubility; key = COCc1cc(C2CC2)n2cnc(C(=O)NC(C)(C)c3cccc(C#N)c3)c2n1
Ans. 23.4

Qu. Name the reported solubility value associated with the compound CCC(NC(=O)c1ncn2c(C)cc(C)nc12)c1cccc(Cl)c1 (centres unmarked)
Ans. 20.3

Qu. Need solubility of CCCCO[C@@H]1[C@@H]2CC[C@H]1C[C@@H](NC(=O)c1ncn3c(C)cc(C)nc13)C2 , thanks.
Ans. 14.6

Qu. I'd like to know its solubility. The compound in question is CO[C@H]1CC[C@H](C(C)(C)NC(=O)c2ncn3c(C)cc(C)nc23)CC1
Ans. 27
